# experimental_target: mouse EP1 receptor (Mus musculus)
# Construct: expressed in transfected cells; host or cells: CHO cells
# Sequence (P35375 1-405): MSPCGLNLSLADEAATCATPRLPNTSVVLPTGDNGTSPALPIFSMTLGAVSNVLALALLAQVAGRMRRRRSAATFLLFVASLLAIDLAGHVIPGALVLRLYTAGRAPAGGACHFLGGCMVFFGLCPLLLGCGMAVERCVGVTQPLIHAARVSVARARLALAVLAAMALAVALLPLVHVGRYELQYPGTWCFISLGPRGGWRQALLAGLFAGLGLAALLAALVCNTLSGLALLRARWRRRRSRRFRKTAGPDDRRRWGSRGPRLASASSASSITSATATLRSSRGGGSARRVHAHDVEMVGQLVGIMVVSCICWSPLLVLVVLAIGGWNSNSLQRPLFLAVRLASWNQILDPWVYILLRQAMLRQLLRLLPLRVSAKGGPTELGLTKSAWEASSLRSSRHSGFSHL
# procedure_text: Binding assay using cell expressing the prostanoid receptor subtypes (EP1)
# condition_notes: CHO cell membrane fraction, competition with [3H]-PGE2 2.5 nM
measured_metric: Ki

1. CC(C(=O)Nc1ccccc1CCCC(=O)O)c1cccc2ccccc12 (stereo not shown) [Example 2]    > 10 µM

* * *

# experimental_target: mouse EP2 receptor (Mus musculus, UniProt Q62053)
# Construct: expressed in transfected cells; host or cells: CHO cells
# Sequence (Q62053 whole entry): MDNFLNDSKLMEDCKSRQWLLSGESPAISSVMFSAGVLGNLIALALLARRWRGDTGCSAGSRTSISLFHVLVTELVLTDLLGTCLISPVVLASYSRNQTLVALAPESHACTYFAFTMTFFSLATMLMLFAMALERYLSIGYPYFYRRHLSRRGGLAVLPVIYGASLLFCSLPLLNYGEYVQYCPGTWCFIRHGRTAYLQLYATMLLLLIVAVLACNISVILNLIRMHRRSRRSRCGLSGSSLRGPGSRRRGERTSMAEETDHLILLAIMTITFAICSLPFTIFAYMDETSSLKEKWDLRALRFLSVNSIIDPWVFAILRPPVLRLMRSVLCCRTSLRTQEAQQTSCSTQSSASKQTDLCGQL
# procedure_text: Binding assay using cell expressing the prostanoid receptor subtypes (EP2)
# condition_notes: CHO cell membrane fraction, competition with [3H]-PGE2 2.5 nM
# Procedure: (i) Binding Assay Using Cell Expressing the Prostanoid Receptor Subtypes […] The standard assay mixture containing membrane fraction (50 μL), [^3H]—PGE2 in a final volume of 150 μL was incubated for 1 hour at room temperature. […] The radioactivities associated with the filters were measured by liquid scintillation counter. Kd and Bmax values were determined from Scatchard plots [Ann. […] The inhibition constant (Ki) (μM) of each compound was calculated by the following equation.
measured_metric: Ki

1) CC(C(=O)Nc1ccccc1CCCC(=O)O)c1cccc2ccccc12 (stereo not shown)    > 10 µM

* * *

# experimental_target: mouse EP3α receptor (Mus musculus)
# Construct: expressed in transfected cells; host or cells: CHO cells
# Sequence (P30557 whole entry): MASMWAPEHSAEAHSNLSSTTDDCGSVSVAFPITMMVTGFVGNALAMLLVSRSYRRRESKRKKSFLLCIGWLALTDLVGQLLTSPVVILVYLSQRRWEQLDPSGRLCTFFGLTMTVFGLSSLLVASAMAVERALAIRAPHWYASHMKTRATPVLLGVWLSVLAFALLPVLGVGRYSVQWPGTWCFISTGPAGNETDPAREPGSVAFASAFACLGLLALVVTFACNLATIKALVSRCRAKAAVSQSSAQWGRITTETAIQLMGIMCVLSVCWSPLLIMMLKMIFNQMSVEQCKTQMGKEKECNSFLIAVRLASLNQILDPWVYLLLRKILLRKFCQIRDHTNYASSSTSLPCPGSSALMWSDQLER
# procedure_text: Binding assay using cell expressing the prostanoid receptor subtypes (EP3)
# condition_notes: CHO cell membrane fraction, competition with [3H]-PGE2 2.5 nM
measured_metric: Ki (µM)

1. CC(C(=O)Nc1ccccc1CCCC(=O)O)c1cccc2ccccc12 (stereo not shown)    2.4

Origin of values: patent US6835752B2
